system: SK-N-SH human neuroblastoma cells; assay: Serum Deprivation/JC-1 Mitochondrial Membrane Potential (MMP) Assay; type: cell-based; details: Homo sapiens, single dose 3 μM, JC-1 ratio normalized to peak value for 10 μM dimebolin (n=2-4), serum deprivation, read-out: JC-1 max % (@ 3 μM)
Measurement type: activation at 3 µM (%)
State just the number; it will be interpreted in %.

Here is how some molecules turned out for activation at 3 µM.
COCCN(C)C(=O)N1Cc2ccccc2N2CCN(Cc3ccccc3)CC2C1 (centres unmarked) [Example 149]; 218
CC(C)(C)CN1Cc2ccccc2N2CCN(Cc3ccccc3)CC2C1 (centres unmarked) [Example 141]; 12

Exercise: Please look up its activation at 3 µM: O=C(c1cccnc1)N1Cc2ccccc2N2CCN(Cc3ccccc3)CC2C1 (centres unmarked) [Example 110]
Key: 97

Exercise: Entry to check: CN1CCN2c3ccccc3CN(C(=O)c3cccc(Cl)c3)CC2C1 (centres unmarked) [Example 175]
Key: 40

Exercise: Entry to check: CN1CCN2c3ccccc3CN(C(=O)c3ccc(Cl)cc3)CC2C1 (centres unmarked) [Example 176]
Key: 40

Exercise: Entry to check: c1ccc(CN2CCN3c4ccccc4CN(Cc4cccs4)CC3C2)cc1 (centres unmarked) [Example 147]
Key: 1.7

Exercise: Entry to check: NC(=O)C1(C(=O)N2Cc3ccccc3N3CCN(Cc4ccccc4)CC3C2)CC1 (centres unmarked) [Example 97]
Key: 32

Exercise: Entry to check: CC(C)C(=O)N1Cc2ccccc2N2CCN(Cc3ccccc3)CC2C1 (centres unmarked) [Example 100]
Key: 118

Exercise: Entry to check: CC(C)CCN1Cc2ccccc2N2CCN(Cc3ccccc3)CC2C1 (centres unmarked) [Example 143]
Key: 30

Exercise: Entry to check: O=C(c1ccco1)N1Cc2ccccc2N2CCN(Cc3ccccc3)CC2C1 (centres unmarked) [Example 104]
Key: 178

Exercise: Entry to check: CCc1ccc(CN2Cc3ccccc3N3CCN(Cc4ccccc4)CC3C2)o1 (centres unmarked) [Example 127]
Key: 26

Exercise: Entry to check: CCCCN(CC#N)C(=O)N1Cc2ccccc2N2CCN(Cc3ccccc3)CC2C1 (centres unmarked) [Example 165]
Key: 251

Exercise: Entry to check: O=C(NCc1ccccn1)N1Cc2ccccc2N2CCN(Cc3ccccc3)CC2C1 (centres unmarked) [Example 168]
Key: 259

Exercise: Entry to check: CCOCC(=O)N1Cc2ccccc2N2CCN(Cc3ccccc3)CC2C1 (centres unmarked) [Example 113]
Key: 51

Reference source: patent US9133206B2
